Reported LD50 values are given for each entry in this list.
assay: in vivo; details: mouse, po, read-out: Akute Toxizität Maus p.o. LD50
Measured endpoint: LD50

# Compound, Experimental result
rows = [
    ("CCOC(=O)C1(CCCC(C)Cc2ccccc2)CO1 (stereo not drawn) [compound 3]", "> 1000 mg/kg"),
    ("CCOC(=O)C1(CCCC(C)Cc2ccc(Cl)cc2)CO1 (stereo not drawn) [compound 5]", "~500 mg/kg"),
    ("CCOC(=O)C1(CCCC(C)CCCc2ccccc2)CO1 (stereo not drawn) [compound 6]", "> 500 mg/kg"),
]

###

tested on: nüchterner, stoffwechselgesunder Ratten; assay: Blood glucose determination after single oral application; assay type: in vivo, Sprague-Dawley-Ratten; conditions: maximal lowering vs. control group within 6 hours after single oral application of 0,6 mmol substance/kg body weight; fasted male rats
Response field label: string, one of criterion met (Senkung der Blut-glucosekonzentration (in %) in vivo strictly below 40%) or criterion not met.

# Molecule, Experimental target, Assigned label
data = [
    ("CCOC(=O)C1(CCCC(C)CCCc2ccccc2)CO1 (stereo not shown) [compound 6]", "nüchterner, stoffwechselgesunder Ratten", "criterion met"),
    ("[H]/N=C(/N)N/C(=N/[H])NCCc1ccccc1 [compound 2, Phenformin, reference compound]", "nüchterner, stoffwechselgesunder Ratten", "criterion met"),
    ("CCOC(=O)C1(CCCC(C)Cc2ccccc2)CO1 (stereo not shown) [compound 3]", "nüchterner, stoffwechselgesunder Ratten", "criterion not met"),
    ("CCOC(=O)C1(CC(CC)CCCc2ccccc2)CO1 (stereo not shown) [compound 4]", "nüchterner, stoffwechselgesunder Ratten", "criterion met"),
    ("CCOC(=O)C1(CCCCC(C)c2ccccc2)CO1 (stereo not shown) [compound 7]", "nüchterner, stoffwechselgesunder Ratten", "criterion met"),
    ("CCOC(=O)C1(CCCC(C)Cc2ccc(Cl)cc2)CO1 (stereo not shown) [compound 5]", "nüchterner, stoffwechselgesunder Ratten", "criterion not met"),
    ("CCCCNC(=N)NC(=N)N [compound 1, Buformin, reference compound]", "nüchterner, stoffwechselgesunder Ratten", "criterion met"),
]
